System: Human papillomavirus type 1a protein E7 (residues 44-93)
METHOD: HPV1a E7 fragment binders on microarrays, primary screen, biochemical, small-molecule microarray, residues 44-93, 635 nm fluorescence (AID 1108);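 also: E7 fragment applied at 1 µg/mL in TBST for 1 h at 4 C; score combines spot fluorescence with its signal to noise ratio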
CONDITION LABEL: small-molecule microarray binding, fluorescence 635 nm; higher = more signal
# composite z-score per record follows

Worked examples follow.
CCOC(=O)C[C@H]1[C@H](OC(=O)c2ccc(-c3ccccc3)cc2)[C@@H](NC(=O)c2ccccc2)c2cc(OCCCO)ccc2N1C(=O)c1ccccc1 = 1.11
C=CC[C@@]1(C(=O)NCc2ccccc2)N=C(c2ccc(OCCCO)cc2)O[C@@H]1c1ccccc1 = 0.483
CCCNC(=O)[C@@H]1c2ccccc2C(=O)N(Cc2cc(C(F)(F)F)cc(C(F)(F)F)c2)[C@H]1c1ccc(CO)cc1 = 0.35

Q: So what's the measured composite z-score for this one? `C=CCN1C(=O)[C@]2(O[C@H](CCn3cc([C@H](O)c4ccccc4)nn3)[C@@H]([Si](C)(C)c3ccc(OC)cc3)[C@@H]2C)c2cc(N3CCOC3=O)ccc21`
Result: 0.724

###

METHOD: binders of probe aHhip on microarray, primary screen, stem cell growth factor project, biochemical, small-molecule microarray, fluorescence 635/667 (AID 1087);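 also: score merges spot fluorescence at 667nm with spot signal to noise ratio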
CONDITION LABEL: higher = more signal
Label scheme for composite z-score: lower than -0.2 is False, -0.2 and above is True.

C=CCC(OC(C)=O)[C@@H]1[C@@H](N(Cc2cccc3ccccc23)C(=O)c2cccc3ccccc23)c2cc(OCCCO)ccc2N1C(=O)Cc1ccc(OC)cc1 (stereo partly drawn) = True
NCCCCCCNC(=O)[C@@H]1C[C@@H]2C(=O)N[C@@H](Cc3ccccc3)C(=O)N2[C@@H]1c1ccc(O)cc1 = False
C=C(C(=O)CC[C@H](OC(C)=O)c1ccc(CO)o1)C(C)C = True
CCCCCN1CC=CC23O[C@@H]4/C=C\CCC(C)OC(=O)C4[C@H]2C(=O)N(CCCO)[C@@H]3C1=O (stereo partly drawn) = False

Q: Given `C=C(/C(=C/C[C@H](OC(C)=O)c1cccc(OCCO)c1)c1cc(C(=O)OC)ccc1OC)C(C)C` , state whether its composite z-score is at least -0.2.
Result: True

Q: In plain terms: is recorded composite z-score at least -0.2 for CCCCCN1CC=CC23O[C@@H]4/C=C\CCC(C)OC(=O)C4[C@H]2C(=O)N(CCO)[C@@H]3C1=O (stereo partly drawn) ?
Result: True

Q: Check if composite z-score >= -0.2 (inclusive). Item: `C=C(CCCC)/C(=C/C[C@H](OC(=O)c1ccncc1)c1ccc(CO)o1)c1cnc2ccccc2c1`
Result: True

Q: Does the compound `CCCCC(=C=CC[C@@H](O)c1ccc(OCCO)cc1)C[C@@H](O)c1cc(Cl)cc(Cl)c1O` have recorded composite z-score that is -0.2 or more?
Result: True

###

METHOD: cytotoxicity in OVCAR8 ovarian cancer cells, dose response, PAX8 project, cell-based, plate reader, dry powder samples (AID 743197)
CONDITION LABEL: series mostly up to 35 µM
Entries with a potency or affinity are not part of this list. Active and inactive are the calls of the source. No rule for the calls is given here.
TEST READOUT: outcome

C[C@@H]1CCCCO[C@@H](CN(C)Cc2ccc(C(F)(F)F)cc2)[C@H](C)CN([C@@H](C)CO)C(=O)c2cc(NS(=O)(=O)c3ccc(Cl)cc3)ccc2O1 = inactive
C[C@@H]1CN([C@H](C)CO)C(=O)Cc2cc(NC(=O)Nc3ccc(F)cc3)ccc2O[C@H]1CN(C)Cc1ccc(Cl)c(Cl)c1 = inactive
COc1ccc(CN(C)C[C@H]2OCCCC[C@H](C)Oc3ccc(NC(=O)Nc4ccc(C(F)(F)F)cc4)cc3C(=O)N([C@H](C)CO)C[C@@H]2C)cc1 = inactive
